experimentalTarget: Human immunodeficiency virus type 1 reverse transcriptase (Human immunodeficiency virus 1) (UniProt Q72547)
experimentSummary: Percent inhibitory activity against wild type (WT) HIV type I reverse transcriptase at a concentration of 1 uM
Please use Yes whenever inhibition is not below 40%, and No whenever it is.

| compoundStructureString | classLabel |
| --- | --- |
| COc1ccc(O)c(Cc2ccnc3c2NC(=O)c2cccnc2N3C2CC2)c1 | Yes |
| O=C(O)/C=C/c1ccnc2c1NC(=O)c1cccnc1N2C1CC1 | No |
| CCN1c2ncccc2C(=O)Nc2c(COc3ccccc3)cc(-c3cccc(OC)c3)nc21 | Yes |
| CCN1c2ncccc2C(=O)Nc2c(C3OCCCO3)cc(O)nc21 | No |
| O=C1Nc2c(CO)ccnc2N(C2CC2)c2ncccc21 | No |
| Cc1cccc(OCc2ccnc3c2NC(=O)c2cccnc2N3C2CC2)c1 | No |
| CCN1c2ncccc2C(=O)Nc2c(Cc3ccccc3)cc(OC)nc21 | No |
| O=C1Nc2c(COCCCc3ccccc3)ccnc2N(C2CC2)c2ncccc21 | No |
| CCN1c2ncccc2C(=O)Nc2c(Cc3ccccc3)cc(-c3cccc(OC)c3)nc21 | No |
| COc1ccc(OCc2ccnc3c2NC(=O)c2cccnc2N3C2CC2)cc1 | Yes |
| CCN1c2ncccc2C(=O)Nc2c(C=O)cc(OC)nc21 | Yes |
| O=C1Nc2c(COc3ccccc3Cl)ccnc2N(C2CC2)c2ncccc21 | No |
| O=C1Nc2c(COc3ccccc3O)ccnc2N(C2CC2)c2ncccc21 | Yes |
| O=C1Nc2c(CN3CCCC3)ccnc2N(C2CC2)c2ncccc21 | Yes |
| C=CCOCc1ccnc2c1NC(=O)c1cccnc1N2C1CC1 | No |
| CCOC(=O)/C=C/c1ccnc2c1NC(=O)c1cccnc1N2C1CC1 | No |
| O=C1Nc2c(CNc3ccccc3)ccnc2N(C2CC2)c2ncccc21 | Yes |
| CCN1c2ncccc2C(=O)Nc2c(C=O)cc(-c3cccc(OC)c3)nc21 | Yes |
| O=C1Nc2c(CN3CCCCC3)ccnc2N(C2CC2)c2ncccc21 | No |
| O=C1Nc2c(CCc3ccccc3)ccnc2N(C2CC2)c2ncccc21 | No |
| CCN1c2ncccc2C(=O)Nc2c(C=O)cc(O)nc21 | No |
| Nc1ccc(OCc2ccnc3c2NC(=O)c2cccnc2N3C2CC2)cc1 | Yes |
| CCN1c2ncccc2C(=O)Nc2c(CO)cc(O)nc21 | Yes |
